target-entity: UniProt:P27487
experiment: Inhibitory activity against human recombinant Dipeptidylpeptidase IV
Strictly below 200 nM in IC50: true (1). Otherwise: false (0).

N[C@H](C(=O)N1CCCC1)[C@H]1CCC[C@H](O)C1 : false (0)
N[C@H](C(=O)N1CCCC1)[C@H]1CC[C@H](O)C1 : false (0)
COc1ccc(NC(=O)O[C@H]2CC[C@H]([C@H](N)C(=O)N3CCCC3)C2)cc1 : false (0)
CS(=O)(=O)NCCS(=O)(=O)N[C@H]1CC[C@H]([C@H](N)C(=O)N2CCCC2)C1 : true (1)

Okay, now this compound:
# input Please determine if N[C@H](C(=O)N1CCCC1)[C@@H]1CC[C@@H](OC(=O)Nc2ccc(I)cc2)C1 is below 200 nM in terms of IC50.
# output true (1)

* * *

target-entity: Dipeptidyl peptidase 2 (Homo sapiens)
Criterion: IC50 strictly less than 300 nM. Met: fulfilled. Not met: not fulfilled.

N[C@H](C(=O)N1CCCC1)[C@H]1CC[C@@H](OC(=O)Nc2ccc(I)cc2)C1 : fulfilled
N[C@H](C(=O)N1CCCC1)[C@H]1CC[C@@H](NC(=O)Nc2cccc3ccccc23)C1 : fulfilled
COc1ccc(NC(=O)O[C@@H]2CC[C@H]([C@H](N)C(=O)N3CCCC3)C2)cc1 : not fulfilled
N[C@H](C(=O)N1CCSC1)[C@H]1CC[C@H](NC(=O)c2cccc3ccccc23)C1 : fulfilled
N[C@H](C(=O)N1CCCC1)[C@H]1CCC[C@H](OC(=O)Nc2ccc(I)cc2)C1 : fulfilled
COc1ccc(NC(=O)O[C@@H]2CC[C@H]([C@H](N)C(=O)N3CCSC3)C2)cc1 : fulfilled

Here's the next entry for you.
# input I wonder whether CS(=O)(=O)NCCS(=O)(=O)N[C@H]1CC[C@H]([C@H](N)C(=O)N2CCCC2)C1 has IC50 below 300 nM. Can you tell?
# output not fulfilled

* * *

# pIC50 listing for each entry below
target-entity: Dipeptidyl peptidase 4 (Homo sapiens)
Sequence (P27487 whole entry): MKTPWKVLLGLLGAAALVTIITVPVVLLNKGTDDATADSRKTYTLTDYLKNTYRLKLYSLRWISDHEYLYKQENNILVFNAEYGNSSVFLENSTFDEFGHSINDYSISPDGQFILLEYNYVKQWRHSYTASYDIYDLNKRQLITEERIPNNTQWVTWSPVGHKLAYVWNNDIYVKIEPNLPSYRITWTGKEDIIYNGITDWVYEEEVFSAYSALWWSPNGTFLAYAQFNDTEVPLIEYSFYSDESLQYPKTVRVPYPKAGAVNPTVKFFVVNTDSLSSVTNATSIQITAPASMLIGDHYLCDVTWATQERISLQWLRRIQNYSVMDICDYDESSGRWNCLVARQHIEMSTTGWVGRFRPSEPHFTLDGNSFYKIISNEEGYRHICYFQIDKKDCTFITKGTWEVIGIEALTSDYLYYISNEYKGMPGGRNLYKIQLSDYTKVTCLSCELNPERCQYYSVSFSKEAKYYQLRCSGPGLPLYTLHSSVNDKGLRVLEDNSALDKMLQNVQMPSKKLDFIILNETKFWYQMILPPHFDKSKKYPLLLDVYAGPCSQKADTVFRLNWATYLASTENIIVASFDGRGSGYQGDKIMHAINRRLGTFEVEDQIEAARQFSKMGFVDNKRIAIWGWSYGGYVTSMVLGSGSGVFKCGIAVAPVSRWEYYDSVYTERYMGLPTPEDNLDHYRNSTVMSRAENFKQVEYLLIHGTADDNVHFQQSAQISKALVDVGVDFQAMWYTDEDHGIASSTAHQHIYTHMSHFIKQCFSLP
experiment: Inhibitory activity against human recombinant Dipeptidylpeptidase IV
// returns pIC50 (minus log10 of molar concentration), number only

# input // query pIC50 value for entry N[C@H](C(=O)N1CCCC1)[C@H]1CC[C@@H](NC(=O)Nc2cccc3ccccc23)C1
# output 6.96

# input Another compound to check: N[C@H](C(=O)N1CCSC1)[C@H]1CC[C@@H](OC(=O)Nc2ccc(Cl)c(Cl)c2)C1
# output 6.55

# input Field entry: CN(C)S(=O)(=O)c1ccc(S(=O)(=O)N[C@H]2CC[C@H]([C@H](N)C(=O)N3CCCC3)C2)cc1
# output 6.96

# input What do we get for COc1ccc(NC(=O)O[C@H]2CCC[C@H]([C@H](N)C(=O)N3CCSC3)C2)cc1 ?
# output 6.38

# input Now the same for N[C@H](C(=O)N1CCCC1)[C@H]1CC[C@H](NS(=O)(=O)c2ccc(S(N)(=O)=O)cc2)C1
# output 7.08

# input Next record, please: N[C@H](C(=O)N1CCSC1)[C@H]1CC[C@H](NC(=O)c2cccc3ccccc23)C1
# output 7.33

# input Then this compound: COc1ccc(NC(=O)O[C@H]2CCC[C@H]([C@H](N)C(=O)N3CCCC3)C2)cc1
# output 6.32
